# TARGET_OR_SYSTEM: TaqRA (Thermus aquaticus, UniProt P19821 1-832, E742R)
# Sequence (P19821 whole entry E742R): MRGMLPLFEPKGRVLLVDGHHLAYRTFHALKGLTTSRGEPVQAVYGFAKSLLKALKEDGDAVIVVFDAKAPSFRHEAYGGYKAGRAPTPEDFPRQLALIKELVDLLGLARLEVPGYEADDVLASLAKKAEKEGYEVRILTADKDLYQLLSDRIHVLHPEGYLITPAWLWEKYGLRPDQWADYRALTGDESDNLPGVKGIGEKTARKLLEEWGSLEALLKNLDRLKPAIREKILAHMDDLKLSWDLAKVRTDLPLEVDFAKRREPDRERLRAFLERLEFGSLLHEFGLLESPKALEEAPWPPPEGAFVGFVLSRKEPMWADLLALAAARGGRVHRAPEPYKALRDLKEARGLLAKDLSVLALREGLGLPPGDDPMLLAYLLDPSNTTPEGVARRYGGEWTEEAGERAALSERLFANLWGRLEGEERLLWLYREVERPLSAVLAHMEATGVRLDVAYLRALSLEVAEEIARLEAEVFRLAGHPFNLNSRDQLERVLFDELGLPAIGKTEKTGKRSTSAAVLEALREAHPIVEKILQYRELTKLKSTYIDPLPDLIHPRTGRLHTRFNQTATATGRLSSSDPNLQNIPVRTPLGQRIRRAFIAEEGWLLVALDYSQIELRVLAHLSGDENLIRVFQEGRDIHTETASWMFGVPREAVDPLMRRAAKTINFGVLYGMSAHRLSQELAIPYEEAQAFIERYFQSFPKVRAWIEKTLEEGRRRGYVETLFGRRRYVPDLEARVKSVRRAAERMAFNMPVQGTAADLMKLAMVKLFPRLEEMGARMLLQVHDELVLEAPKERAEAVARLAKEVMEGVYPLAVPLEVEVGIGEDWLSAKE
# EXPERIMENTAL_PROTOCOL: EMSA; 5 mM Mg2+; apparent Kd; EMSA: 3 nM DNA, 20 mM Tris-HCl pH 8.8, 10 mM NaCl, 5 mM MgCl2, 14 mM 2-mercaptoethanol, 0.1 mg/ml BSA, 5% glycerol, 40 C, 5 min; 1% agarose gel
# ASSAY_CONDITIONS: protein: recombinant; label: 32P on 27mer; primer-template; 27 bp duplex, 5' overhang 22 nt on the 49mer template
ASSAY_METRIC: Kd (nM)
Report the value in nM with no unit label.

Data request: Kd for primed DNA (27mer/49mer) (dsDNA) DNA 1: AGCTATGACCATGATTACGAATTGCTT DNA 2: AGCTACCATGCCTGCACGAATTAAGCAATTCGTAATCATGGTCATAGCT ?
Data returned: 8
